Test: qHTS assay for small molecule activators of the heat shock response signaling pathway - cell viability counter screen (AID 743209); further: nearly all actives have a fitted effect of over 50% in size
Conditions: HSE-bla HeLa viability, CellTiter-Glo luminescence, 5 h; series mostly up to 62.6 µM
Description: U.S. Tox21 Program National Center for Advancing Translational Sciences [NCATS] NIH Chemical Genomics Center [NCGC] U.S. Environmental Protection Agency [EPA] National Institutes of Environmental Health Sciences [NIEHS] National Toxicology Program [NTP] U.S. Food and Drug Administration [FDA] Tox21 Assay Overview: Various chemicals, environmental and physiological stress conditions may lead to the activation of heat shock response/ unfolded protein response (HSR/UPR). […]
Inconclusive results are not listed. The source made the active and inactive calls. The call rests on the fitted dose curve; in most records, active means well fitted cell-killing curve with a large enough effect in the repeat runs; inconclusive means weak or mixed curves, or effect the other way; inactive means no such curve, though single readings can be large or run the other way.
The categories you may choose from are active, inactive

Exercise: Please state the recorded outcome for this compound: Cn1sc(Cl)cc1=O
Solution: inactive

Exercise: Please state the recorded outcome for this compound: CCOP(=O)(OCC)SCCSCC
Solution: inactive

Exercise: Please state the recorded outcome for this compound: O=C(O)COc1ccc(Cl)cc1
Solution: inactive

Exercise: Please state the recorded outcome for this compound: OC(c1ccc(Cl)cc1)(c1ccc(Cl)cc1)c1cccnc1
Solution: inactive

---

test: qHTS assay to identify small molecule that activate the aryl hydrocarbon receptor (AhR) signaling pathway - cell viability counter screen (AID 743086); conditions: HepG2-AhR-luc viability, CellTiter-Fluor, 24 h; series mostly up to 70.3 µM; further: nearly all actives have a fitted effect of over 45% in size
Records with an inconclusive call do not appear. Activity calls are given as the source filed them. Calls follow the shape of the dose curve; as a rule, active = well fitted cell-killing curve with a large enough effect in the repeat runs; inconclusive = weak or mixed curves, or effect the other way; inactive = flat fitted curve, though single readings scatter.
The categories you may choose from are active, inactive

Worked examples, 8 compounds total:
1. CS/C(C)=N/OC(=O)N(C)SN(C)C(=O)O/N=C(\C)SC: inactive
2. O=C=Nc1ccc(Cl)cc1: inactive
3. CC(C)(OO)c1ccccc1: inactive
4. O=C(NC(=O)c1c(F)cccc1F)Nc1ccc(OC(F)(F)C(F)OC(F)(F)F)c(Cl)c1 (stereo not drawn): inactive
5. CC(C)=CCOc1c2occc2cc2ccc(=O)oc12: inactive
6. O=C(C(Cl)(Cl)Cl)C(Cl)(Cl)Cl: inactive
7. O=C1CN=C(c2ccccc2)c2cc(Cl)ccc2N1CC1CC1: inactive
8. O=NN1CCCCCC1: inactive

Exercise: Please state the recorded outcome for this compound: COP(=S)(OC)Oc1ccc([N+](=O)[O-])cc1Cl
Solution: active

Exercise: Please state the recorded outcome for this compound: N#CCc1ccccc1
Solution: inactive

Exercise: Please state the recorded outcome for this compound: NCCCNCCCN
Solution: inactive

Exercise: Please state the recorded outcome for this compound: c1ccc(C2CC2)c(OCC2=NCCN2)c1
Solution: inactive

Exercise: Please state the recorded outcome for this compound: Nc1ccc([N+](=O)[O-])cc1[N+](=O)[O-]
Solution: inactive

Exercise: Please state the recorded outcome for this compound: O=C1C(=O)c2cccc3cccc1c23
Solution: inactive

---

assay: qHTS assay for identifying genotoxic compounds that show differential cytotoxicity against isogenic chicken DT40 cell lines with known DNA damage response pathways - wild type cell line (AID 743012); conditions: DT40 wild type chicken cells viability, CellTiter-Glo, 40 h; series mostly up to 68.4 µM; further: nearly all actives have a fitted effect of over 60% in size
Inconclusive results are not listed. The source made the active and inactive calls. The call rests on the fitted dose curve; in most records, active means well fitted cell-killing curve with a large enough effect in the repeat runs; inconclusive means weak or mixed curves, or effect the other way; inactive means no such curve, though single readings can be large or run the other way.
The categories you may choose from are active, inactive

Exercise: Please state the recorded outcome for this compound: O=C(N[C@H](c1ccccc1)[C@@H]1CN2CCC1CC2)c1c(Cl)ccc(C(F)(F)F)c1Cl
Solution: active

Exercise: Please state the recorded outcome for this compound: O=C(NC(=O)c1c(F)cccc1F)Nc1ccc(OC(F)(F)C(F)OC(F)(F)F)c(Cl)c1 (centres undefined)
Solution: active

Exercise: Please state the recorded outcome for this compound: CO/N=C(/C(=O)OC)c1ccccc1COc1ccccc1C
Solution: active

Exercise: Please state the recorded outcome for this compound: Nc1nc(N)nc(N)n1
Solution: inactive

Exercise: Please state the recorded outcome for this compound: CC(O)(CS(=O)(=O)c1ccc(F)cc1)C(=O)Nc1ccc(C#N)c(C(F)(F)F)c1 (centres undefined)
Solution: active

Exercise: Please state the recorded outcome for this compound: COC(=O)C(Cl)C(=O)OC
Solution: inactive

Exercise: Please state the recorded outcome for this compound: NS(=O)(=O)C(F)(F)C(F)(F)C(F)(F)C(F)(F)C(F)(F)C(F)(F)C(F)(F)C(F)(F)F
Solution: active

Exercise: Please state the recorded outcome for this compound: NCC(CC(=O)O)c1ccc(Cl)cc1 (centres undefined)
Solution: inactive

Exercise: Please state the recorded outcome for this compound: O=[N+]([O-])c1ccccc1CCl
Solution: inactive

Exercise: Please state the recorded outcome for this compound: Cc1ccccc1C(=O)Nc1cccc(OC(C)C)c1
Solution: active

---

target: Aryl hydrocarbon receptor (Homo sapiens) (UniProt P35869); assay: qHTS assay to identify small molecule that activate the aryl hydrocarbon receptor (AhR) signaling pathway (AID 743085); details: HepG2 AhR-luc (HG2L7.5c1), luciferase, 24 h; series mostly up to 70.3 µM;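 further: HG2L7.5c1 human HepG2 liver cells with stably integrated DRE-driven firefly reporter; nearly all actives have a fitted effect of over 15% in size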
Sequence (P35869 whole entry, looked up): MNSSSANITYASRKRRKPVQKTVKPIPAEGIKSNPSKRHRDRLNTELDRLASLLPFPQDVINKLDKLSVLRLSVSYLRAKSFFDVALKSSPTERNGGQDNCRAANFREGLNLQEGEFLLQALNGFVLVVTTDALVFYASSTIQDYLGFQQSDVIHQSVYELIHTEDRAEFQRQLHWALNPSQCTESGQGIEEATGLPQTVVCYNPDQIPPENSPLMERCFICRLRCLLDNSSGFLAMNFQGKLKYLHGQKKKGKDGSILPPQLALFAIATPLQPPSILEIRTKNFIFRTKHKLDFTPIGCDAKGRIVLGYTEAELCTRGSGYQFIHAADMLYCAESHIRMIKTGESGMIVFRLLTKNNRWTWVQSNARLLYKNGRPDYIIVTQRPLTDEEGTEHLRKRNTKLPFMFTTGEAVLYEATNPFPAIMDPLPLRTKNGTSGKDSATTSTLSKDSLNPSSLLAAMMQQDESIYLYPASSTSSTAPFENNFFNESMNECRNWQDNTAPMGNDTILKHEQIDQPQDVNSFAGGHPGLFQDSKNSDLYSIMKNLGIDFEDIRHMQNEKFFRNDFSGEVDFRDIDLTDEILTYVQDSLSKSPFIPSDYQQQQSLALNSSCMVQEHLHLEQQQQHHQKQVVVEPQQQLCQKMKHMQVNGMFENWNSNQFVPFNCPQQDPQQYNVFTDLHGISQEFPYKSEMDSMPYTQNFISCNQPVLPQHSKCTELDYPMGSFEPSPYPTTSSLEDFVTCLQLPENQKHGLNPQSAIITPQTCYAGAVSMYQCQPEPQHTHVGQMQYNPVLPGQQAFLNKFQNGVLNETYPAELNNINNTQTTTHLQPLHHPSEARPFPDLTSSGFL
Inconclusive results are not listed. Calls of active or inactive are those of the source. Calls follow the shape of the dose curve; as a rule, active = well fitted activation curve with a large enough effect in the repeat runs; inconclusive = weak or mixed curves; inactive = no such curve, though single readings can be large or run the other way.
Quantity measured: outcome

1) O=NN1CCCCCC1: inactive
2) Nc1nc(N)nc(N)n1: inactive
3) C=CC(C)=O: inactive
4) COc1nn(C(=O)NS(=O)(=O)c2ccccc2OC(F)(F)F)c(=O)n1C: inactive

Provide each entry's outcome from the list below.
1. CCC(Cl)CCl (stereo not drawn)
2. COC(=O)C(C)N(C(=O)Cc1ccccc1)c1c(C)cccc1C (stereo not drawn)
3. O=NN1CCNCC1
4. Cc1c(F)c(F)c(COC(=O)C2C(/C=C(\Cl)C(F)(F)F)C2(C)C)c(F)c1F (stereo not drawn)

Solution:
1. inactive
2. inactive
3. inactive
4. inactive

---

assay: qHTS assay to identify small molecule agonists of the estrogen related receptor (ERR) signaling pathway from Tox21 library (AID 1224849); conditions: ERR reporter cell line, ONE-Glo luciferase, 18 h; at 92.4 µM (top of the series) unless noted; further: nearly all actives have a fitted effect of over 15% in size
Activity calls are given as the source filed them. The call rests on the fitted dose curve.
The categories you may choose from are active, inactive

Worked examples, 3 compounds total:
1) Nc1nc(=S)[nH][nH]1: inactive
2) O=C(Nc1ccccc1)Nc1cnns1: inactive
3) O=C(O)CC(Cl)C(=O)O (stereo not drawn): inactive

Exercise: Please state the recorded outcome for this compound: ClCc1cccc(Cl)c1
Solution: inactive

Exercise: Please state the recorded outcome for this compound: CC1(C)CCC(Cc2ccc(Cl)cc2)C1(O)Cn1cncn1 (stereo not drawn)
Solution: inactive

Exercise: Please state the recorded outcome for this compound: CCO[C@H]1O[C@@H]2OC3(C)CC[C@H]4[C@H](C)CC[C@@H]([C@H]1C)[C@@]24OO3
Solution: inactive

---

assay: qHTS assay to identify small molecule agonists of the AP-1 signaling pathway - cell viability counter screen (AID 1159525); conditions: ME-180 (cervical carcinoma) AP-1-bla cells viability, ATP luminescence, 5 h; series mostly up to 76.8 µM; further: nearly all actives have a fitted effect of over 55% in size
Inconclusive results are not listed. Active and inactive are the calls of the source. The call rests on the fitted dose curve.
Quantity measured: outcome

1. C=COC(C)=O: inactive
2. COP(=S)(OC)Oc1cc(Cl)c(I)cc1Cl: inactive
3. Brc1ccccc1: inactive
4. CC1C(=O)C[C@]2(C(C)C)C[C@H]12 (some centres not stated): inactive
5. O=C(O)CC(Cl)C(=O)O (configuration not stated): inactive
6. CO/C=C(/C(=O)OC)c1ccccc1COc1cccc(C(F)(F)F)n1: inactive

Okay, now this molecule:
Exercise: Which outcome value is on record for O=C1c2ccccc2C(=O)C1C(=O)C(c1ccccc1)c1ccccc1 ?
Solution: inactive

---

assay: qHTS assay to identify small molecule antagonists of the peroxisome proliferator-activated receptor gamma (PPARg) signaling pathway - cell viability counter screen (AID 743194); conditions: PPARg-bla HEK293H viability, CellTiter-Glo luminescence, 17 h; co-treated with 50 nM rosiglitazone; series mostly up to 62.6 µM; further: nearly all actives have a fitted effect of over 55% in size
Inconclusive results are not listed. Calls of active or inactive are those of the source. Calls follow the shape of the dose curve; as a rule, active = well fitted cell-killing curve with a large enough effect in the repeat runs; inconclusive = weak or mixed curves, or effect the other way; inactive = no such curve, though single readings can be large or run the other way.
The categories you may choose from are 1.0 for active, 0.0 for inactive

Worked examples, 5 compounds total:
1) CCBr: 0.0
2) O=C(NC(=O)c1c(F)cccc1F)Nc1ccc(OC(F)(F)C(F)OC(F)(F)F)c(Cl)c1 (stereo not given): 0.0
3) Cc1cc(=O)[nH]o1: 0.0
4) CCCN(CCC)c1c([N+](=O)[O-])cc(S(C)(=O)=O)cc1[N+](=O)[O-]: 0.0
5) CCOP(=S)(OCC)Oc1nc(Cl)c(Cl)cc1Cl: 0.0

Exercise: Please state the recorded outcome for this compound: CCOP(=S)(OCC)SCn1nnc2ccccc2c1=O
Solution: 1.0

Exercise: Please state the recorded outcome for this compound: CC/C(=N\OC/C=C/Cl)C1=C(O)CC(C2CCOCC2)CC1=O (stereo not given)
Solution: 0.0

Exercise: Please state the recorded outcome for this compound: O=C(Nc1ccccc1)Nc1cnns1
Solution: 0.0

Exercise: Please state the recorded outcome for this compound: N#C/C(N)=C(/N)C#N
Solution: 0.0

Exercise: Please state the recorded outcome for this compound: CNC(C)Cc1ccccc1OC (stereo not given)
Solution: 0.0

Exercise: Please state the recorded outcome for this compound: Nc1nc(=S)[nH][nH]1
Solution: 0.0

Exercise: Please state the recorded outcome for this compound: O=C(O)CC(Cl)C(=O)O (stereo not given)
Solution: 0.0
